Below, each of the molecules is paired with its reported Ki value.
# SYSTEM_NAME: Interstitial collagenase (Homo sapiens)
# Sequence (P03956 whole entry): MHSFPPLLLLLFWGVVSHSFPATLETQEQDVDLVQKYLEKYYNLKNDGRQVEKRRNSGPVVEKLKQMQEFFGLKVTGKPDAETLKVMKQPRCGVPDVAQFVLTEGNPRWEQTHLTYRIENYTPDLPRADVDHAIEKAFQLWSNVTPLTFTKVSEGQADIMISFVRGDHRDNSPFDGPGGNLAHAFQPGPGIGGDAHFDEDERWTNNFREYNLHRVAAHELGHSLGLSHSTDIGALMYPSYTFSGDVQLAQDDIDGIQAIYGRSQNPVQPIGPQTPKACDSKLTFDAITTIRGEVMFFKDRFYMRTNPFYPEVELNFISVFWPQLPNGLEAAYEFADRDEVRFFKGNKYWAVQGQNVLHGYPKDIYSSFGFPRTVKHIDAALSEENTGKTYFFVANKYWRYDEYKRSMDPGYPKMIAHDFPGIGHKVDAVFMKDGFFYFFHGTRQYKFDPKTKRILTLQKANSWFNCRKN
# MEASUREMENT_DESCRIPTION: Assayed against human skin fibroblast Collagenase using the spectrophotometric assay with the thiol ester substrate at pH 6.5.
MEASURE_NAME: Ki (µM)

CCOP(=O)(O)N[C@H](C(=O)N[C@@H](C)C(=O)NCC(=O)O)[C@@H](C)CC :: 130
CCOP(=O)(O)N[C@H](C(=O)N[C@@H](Cc1ccc(OCc2ccccc2)cc1)C(=O)N[C@@H](Cc1ccccc1)C(=O)O)[C@@H](C)CC :: 120
CCOP(=O)(O)N[C@H](C(=O)N[C@@H](Cc1c[nH]c2ccccc12)C(=O)NCC(=O)O)[C@@H](C)CC :: 13
